molecules and their reported fluorescence slope
Measured Target: Voltage-gated potassium channel subunit beta-2 (Rattus norvegicus)
Procedure Text: inhibitors of rat Kvbeta2 reductase activity – biochemical, NADPH fluorescence, primary screen (AID 622);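 note: slope of raw intensity against log time taken from 70 to 1610 s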
Test Context: recombinant KvBeta, 4-cyanobenzaldehyde reduction, at 10 µM, stronger effect = higher value
Quick one: just the number, no unit, thanks!

>>> data_value("COc1ccc(C(=O)N2CCN(C3CCCCC3)CC2)c(OC)c1")
-0.609

Item: NS(=O)(=O)c1ccc(NC(=O)CSc2nnc(Cc3cccs3)n2-c2ccccc2)cc1 Test system: Voltage-gated potassium channel subunit beta-2 (Rattus norvegicus) Read-out: fluorescence slope Value: ? -0.45

Item: COc1ccc(-c2noc(CCC(=O)Nc3nc4ccccc4s3)n2)cc1 Test system: Voltage-gated potassium channel subunit beta-2 (Rattus norvegicus) Read-out: fluorescence slope Value: ? -0.586

Item: Cc1cc(C(=O)Nc2sc3c(c2C#N)CCCCC3)cs1 Test system: Voltage-gated potassium channel subunit beta-2 (Rattus norvegicus) Read-out: fluorescence slope Value: ? -0.581

Item: COc1ccccc1C(=O)Nc1nc2ccc(S(C)(=O)=O)cc2s1 Test system: Voltage-gated potassium channel subunit beta-2 (Rattus norvegicus) Read-out: fluorescence slope Value: ? -0.241

====

Procedure Text: blockers of RIG-like receptor reporter activation – cell-based, Sendai virus stimulus, luciferase, 10K MLSCN set, TLR/RLR signaling modifier project, primary screen (AID 602276);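 note: firefly luciferase from ISG56 promoter only with Renilla not read in this screen; 0% = Sendai virus plus DMSO and 100% = medium plus DMSO without virus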
Test Context: HEK293 RL24 IRF3 luciferase reporter, at 10 µM, stronger effect = higher value
Observable: inhibition (%)
// units = %; emit number, no label

Reference set (10 entries):
>>> data_value("COc1ccc(S(=O)(=O)Cc2ccc(C(=O)N3CCOCC3)o2)cc1")
8.1
>>> data_value("CCCN(CCC)c1nc2ccccc2n2c(C)nnc12")
11.6
>>> data_value("Fc1cccc(Nc2ncnc3c2cnn3-c2ccccc2)c1")
-54.2
>>> data_value("Cc1cc(C(=O)Nc2nnc(C(F)(F)F)s2)no1")
-1.51
>>> data_value("CCC(C)NCC(O)COCc1ccc(Cl)cc1 (configuration not stated)")
15.4
>>> data_value("Cc1cc(=O)oc2ccc(OCC(=O)N3CCC(C)CC3)cc12")
17.3
>>> data_value("Oc1ccc(C=Nc2cccc3ncccc23)c(O)c1")
11.3
>>> data_value("COc1ccc(NC(=O)C2Cc3ccccc3C(=O)O2)cc1 (configuration not stated)")
-11.7
>>> data_value("Cc1ccc(OC(=O)CCC(=O)OCCCC(F)(F)C(F)(F)F)cc1")
3.53
>>> data_value("CC(Oc1ccccc1)C(=O)NC1CCN(Cc2ccccc2)CC1 (configuration not stated)")
11.2

Given the entry O=C(Nc1ccc2c(c1)nc1n2CCSC1)c1ccccc1 , report its measured inhibition. -30.3

Given the entry Cc1ccc(NC(=O)CS(=O)CC(=O)NCC2CCCO2)cc1 (configuration not stated) , report its measured inhibition. -20.7

====

Measured Target: Voltage-gated potassium channel subunit beta-2 (Rattus norvegicus)
Procedure Text: enhancers of rat Kvbeta2 NADPH turnover – biochemical, NADPH fluorescence, primary screen (AID 623);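 note: fluorescence intensity change per second fitted from 20 to 320 s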
Test Context: Recombinant KvBeta, NADPH fluorescence decrease slope, 10 min; at 10 µM; stronger effect = lower value
Active and inactive are the calls of the source.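 The calls were made as follows: active = NADPH fluorescence slope more negative than the mean of all samples by about 3 SD, 99.7% confidence; inactive = the rest.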
molecules and their reported NADPH fluorescence slope

Reference set (2 entries):
>>> data_value("CN(Cc1ccc(-n2cccn2)cc1)C(=O)c1cnn2c1NC(c1ccco1)CC2C(F)(F)F (stereo not given)")
"-4e-05 (inactive)"
>>> data_value("O=C(c1cccc2c1C(=O)N(Cc1cccnc1)C2)N1CCN(c2ccccc2)CC1")
"-6e-05 (inactive)"

Given the entry CCOc1ccc(C2C(C(=O)OC)=CN(CCOC)C=C2C(=O)OC)cc1 , report its measured NADPH fluorescence slope. -8.2e-06 (inactive)

Given the entry O=C(OCN1C(=O)c2ccccc2C1=O)c1ccc2c(=O)n3c(nc2c1)CCC3 , report its measured NADPH fluorescence slope. -6.9e-05 (inactive)

Given the entry O=C1OCCC1Sc1ncnc2sc3c(c12)CCC3 (stereo not given) , report its measured NADPH fluorescence slope. 4.3e-06 (inactive)
